Tested on: Human papillomavirus type 1a protein E7 (residues 44-93)
experimental details: small molecules binding HPV E7 44-93 – biochemical, small-molecule microarray, residues 44-93, 635 nm fluorescence, primary screen (AID 1108);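 also: E7 fragment applied at 1 µg/mL in TBST for 1 h at 4 C; score combines spot fluorescence with its signal to noise ratio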
assay setup: fluorescence 635 nm, higher = more signal
metric: composite z-score

Reference set, count: 3
{"columns": ["compound", "composite z-score"],
 "data": [
  ["C=CCC(OC(C)=O)[C@@H]1[C@@H](N(Cc2cc3ccccc3o2)C(=O)Cc2ccc(F)cc2)c2cc(OCCCO)ccc2N1C(=O)Cc1ccc2ccccc2c1 (some centres not stated)", -0.266],
  ["COC(=O)[C@@]1(Cc2ccc(OC)cc2)[C@H]2c3cc(C(=O)N4CCCC4)n(CCc4c[nH]c5ccc(O)cc45)c3C[C@H]2CN1C(=O)c1ccccc1", 1.39],
  ["Cc1ccc(S[C@]2(C(=O)NCc3ccccc3)CC(=O)N(C3CCCCC3)[C@@H]2c2ccc(CO)cc2I)cc1", 1.23]
]}

Consider the following items and state reported composite z-score for each.
1. C[C@@H]1NC(=O)[C@@H](Cc2ccccc2)NC(=O)[C@@]23C(=O)N[C@@H](Cc4ccccc4)C2[C@H](C)[C@@]2(C)O[C@H]2C3/C=C/C/C=C\CNC1=O (some centres not stated)
2. [N-]=[N+]=Nc1ccccc1[C@@H]1OC(c2ccc(OCCCO)cc2)=N[C@]1(Cc1ccccc1)C(=O)N1CCCCC1

Result block:
1. 0.739
2. 1.46

Kindly give each listed record's composite z-score.
1. NCCCCCNC(=O)[C@@H]1C[C@@H]2C(=O)N[C@@H](CCCCN)C(=O)N2[C@@H]1c1ccc(O)cc1
2. CCCCC(CC)C(O)C1C=CC2C(=O)N(C)C(=O)C2N1Nc1ccccc1 (configuration not stated)

Result block:
1: 1.37; 2: 1.4

* * *

target: Epidermal growth factor receptor (Homo sapiens) (UniProt P00533)
Sequence (P00533 whole entry, looked up): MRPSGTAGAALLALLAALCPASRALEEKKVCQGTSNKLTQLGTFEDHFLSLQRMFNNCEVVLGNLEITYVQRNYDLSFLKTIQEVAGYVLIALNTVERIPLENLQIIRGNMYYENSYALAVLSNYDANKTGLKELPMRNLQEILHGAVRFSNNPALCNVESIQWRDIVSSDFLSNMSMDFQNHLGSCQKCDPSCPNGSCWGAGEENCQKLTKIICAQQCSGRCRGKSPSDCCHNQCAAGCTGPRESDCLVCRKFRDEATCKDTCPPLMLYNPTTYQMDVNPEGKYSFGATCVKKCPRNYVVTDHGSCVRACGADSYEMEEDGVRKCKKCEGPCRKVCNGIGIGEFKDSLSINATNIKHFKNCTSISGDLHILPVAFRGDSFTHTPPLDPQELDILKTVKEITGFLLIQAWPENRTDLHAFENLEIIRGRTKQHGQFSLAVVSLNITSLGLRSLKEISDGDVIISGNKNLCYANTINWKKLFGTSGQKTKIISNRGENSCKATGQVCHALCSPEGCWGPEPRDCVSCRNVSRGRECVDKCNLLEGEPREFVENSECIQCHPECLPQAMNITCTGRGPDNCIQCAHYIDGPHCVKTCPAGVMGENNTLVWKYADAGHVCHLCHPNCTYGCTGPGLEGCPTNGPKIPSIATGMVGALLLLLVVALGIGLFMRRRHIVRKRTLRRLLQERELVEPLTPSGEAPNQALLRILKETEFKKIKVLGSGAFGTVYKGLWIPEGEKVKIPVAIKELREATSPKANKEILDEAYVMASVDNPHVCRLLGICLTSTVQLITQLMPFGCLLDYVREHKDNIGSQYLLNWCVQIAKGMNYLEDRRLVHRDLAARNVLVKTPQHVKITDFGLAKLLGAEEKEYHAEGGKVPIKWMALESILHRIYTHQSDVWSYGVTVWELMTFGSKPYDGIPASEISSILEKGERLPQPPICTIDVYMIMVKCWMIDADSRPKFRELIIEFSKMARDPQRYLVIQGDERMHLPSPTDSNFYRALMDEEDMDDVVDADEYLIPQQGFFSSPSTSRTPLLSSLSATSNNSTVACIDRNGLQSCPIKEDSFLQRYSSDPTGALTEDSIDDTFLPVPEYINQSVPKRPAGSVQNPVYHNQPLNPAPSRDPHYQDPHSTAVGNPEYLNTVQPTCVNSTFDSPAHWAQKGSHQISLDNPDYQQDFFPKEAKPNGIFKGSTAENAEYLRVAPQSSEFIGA
experimental details: compounds binding epidermal growth factor receptor – biochemical, small-molecule microarray, 635 nm fluorescence, primary screen (AID 1104);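 also: score merges 667 nm emission intensity with spot signal to noise over triplicate slides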
assay setup: EGFR binding, higher = more signal
metric: composite z-score
Give bare numbers.

{"columns": ["compound", "composite z-score"],
 "data": [
  ["CCCC=C(CCC)[C@@H](NP(=O)(c1ccccc1)c1ccccc1)c1ccc(-c2ccccc2)cc1", 0.183],
  ["COc1ccc([Si](C)(C)[C@@H]2[C@@H](CCO)O[C@]3(C(=O)N(Cc4ccccc4)c4ccc(NC(=O)[C@H](C)O)cc43)[C@H]2C)cc1", 0.778],
  ["CCCC1(C(=O)OC)C=C2C(=C(C)C(=O)C2C)CN1 (stereo not given)", 0.0023],
  ["CC[C@@H]1C=C(C(=O)O)[C@H](c2ccc(C#N)cc2)N1S(=O)(=O)c1ccc(C)cc1", -0.967]
]}

Give me composite z-score for each of these compounds, listed below.
1. O=C1OCCC/C=C\[C@H]2OC34C=CCN(c5ccc6ccccc6c5)C(=O)[C@H]3N(CCO)C(=O)[C@@H]4C12 (stereo not given in full)
2. C=C(COC)/C(=C/C[C@H](OC(=O)c1ccncc1)c1ccc(CO)o1)c1cnc2ccccc2c1
3. COc1ccc([Si](C)(C)[C@@H]2[C@@H](CCO)O[C@]3(C(=O)N(Cc4cccc(NC(=O)[C@H](C)O)c4)c4ccccc43)[C@H]2C)cc1
4. O=C1C2C=CC(C(O)c3cccc(O)c3)N(Nc3ccc([N+](=O)[O-])cc3)C2C(=O)N1c1ccccc1 (stereo not given)

Result block:
[-1.83, 0.387, 0.0532, 0.254]
